value-kind: melting point (°C)
The reply should contain only the number, in °C.

Request: For Cc1c(Cl)ccc(OC2CCN(C3CCN(S(=O)(=O)NC(=O)c4ccccc4)CC3)CC2)c1Cl , what is its reported melting point?
Result: 223

Request: Would you kindly repeat that for O=C(NS(=O)(=O)N1CCC(N2CCC(Oc3ccc(Cl)c(Cl)c3)CC2)CC1)c1c[nH]c(=O)c2ccccc12 [Example 11A] ?
Result: 200

* * *

value-kind: melting point

Request: For Cc1ccc(S(=O)(=O)NS(=O)(=O)N2CCC(N3CCC(Oc4ccc(Cl)c(Cl)c4)CC3)CC2)cc1.[Na] , what is its reported melting point?
Result: 242 to 243 °C

Request: Would you kindly repeat that for O=C(NC(=O)N1CCC(N2CCC(Oc3ccc(Cl)c(Cl)c3)CC2)CC1)c1ccccc1 [Example 7A] ?
Result: 65 to 80 °C

Request: Would you kindly repeat that for O=C(NS(=O)(=O)N1CCC(N2CCC(Oc3ccc(Cl)c(Cl)c3)CC2)CC1)c1ccc(Cl)c(Cl)c1 [Example 8A] ?
Result: 166 to 167 °C
